Test system: erosion of the stomach wall
Assay: Cytoprotective effect, ethanol erosion (Robert)
Assay type: in vivo
Settings: po; rat, 1 cm^3 abs. ethanol
experimental endpoint: ED50

The examples below pair each entry with its known result.
Data request, read-out ED50, for CC(C)CCC(/C=C/c1ccc(Cl)cc1)=N\OCCCN1CCCC1 [Example 41]
2 mg/kg

I have this compound here, CN/C(=N/CCSCc1nc[nH]c1C)NC#N [Cimetidine, reference compound] , and I need its recorded ED50.
100 to 200 mg/kg

Continuing:
Consider the compound shown here: CC(C)CCC(/C=C/c1ccc(Cl)cc1)=N\OCC(O)CN1CCCCC1 (racemic) [Example 37] What is its recorded ED50?
3 to 10 mg/kg
